The reported measurements were obtained from ChEMBL document CHEMBL1795223.

Consider the following molecules; for each one, report its inhibition.
- Species on record: Sus scrofa
- Measurement Description: Inhibition of H+/K+ATPase in pig gastric microsome assessed as liberation of inorganic phosphate using ATP at 10 uM relative to control
- Assay type: microsomes
- Reported Conditions: Stomach
Express it in %; write the number only.

So, COc1ccnc(C[S+]([O-])c2nc3cc(Oc4ccccc4)c(NC(=O)c4ccco4)cc3[nH]2)c1OC (centres undefined) ? Its inhibition was 9

What the record says about COc1ccnc(C[S+]([O-])c2nc3cc(N4CCCCC4)c(NC(C)=O)cc3[nH]2)c1OC (centres undefined) : inhibition is 8

Quick note, inhibition for COc1c(C)cnc(C[S+]([O-])c2nc3cc(Oc4ccc5c(c4)OCO5)c(NC(C)=O)cc3[nH]2)c1C (centres undefined) landed at 35

Entry CCOC(=O)N1CCN(c2cc3nc([S+]([O-])Cc4ncc(C)c(OC)c4C)[nH]c3cc2NC(=O)C2CC2)CC1 (centres undefined) ; inhibition = 21

Summary for this molecule, COc1cc2nc([S+]([O-])Cc3nccc(OC)c3OC)[nH]c2cc1NC(C)=O (centres undefined) : inhibition is 4

Lab note: CCCN(CCC)c1cc2nc([S+]([O-])Cc3nccc(OC)c3OC)[nH]c2cc1NC(C)=O (centres undefined) gave inhibition of 28

The molecule listed as COc1c(C)cnc(C[S+]([O-])c2nc3cc(N4CCCCC4)c(NC(=O)C4CC4)cc3[nH]2)c1C (centres undefined) shows inhibition equal to 34

Reported inhibition ( COc1ccnc(C[S+]([O-])c2nc3cc(N4CCCCC4)c(NC(=O)COCc4ccccc4)cc3[nH]2)c1OC (centres undefined) ) = 32

Data point: COc1c(C)cnc(C[S+]([O-])c2nc3cc(N4CCCCC4)c(NC(=O)C(F)(F)F)cc3[nH]2)c1C (centres undefined) ; inhibition = 41

----------
- Species: Sus scrofa
- Measurement Description: Inhibition of H+/K+ATPase in pig gastric microsome assessed as liberation of inorganic phosphate using ATP at 10 uM relative to control
- Format: microsomes
- Reported Conditions: Stomach
Recorded Endpoint: inhibition (%)
Give the value, in units of %, as a plain number.

Input CCCN(CCC)c1cc2nc([S+]([O-])Cc3ncc(C)c(OC)c3C)[nH]c2cc1NC(=O)C(F)(F)F (centres undefined) . Output inhibition: 3

# inhibition of CCCN(CCC)c1cc2nc([S+]([O-])Cc3ncc(C)c(OC)c3C)[nH]c2cc1NC(=O)c1ccco1 (centres undefined) = 39

Record COc1cc2nc([S+]([O-])Cc3nccc(OC)c3OC)[nH]c2cc1NC(=O)c1ccco1 (centres undefined) , field inhibition: 13

// sample COc1ccnc(C[S+]([O-])c2nc3cc(Oc4ccccc4)c(NC(C)=O)cc3[nH]2)c1OC (centres undefined) , its inhibition was 6

----------
Could you please report measured inhibition for the items listed next?
- Organism: Sus scrofa
- Measurement Description: Inhibition of H+/K+ATPase in pig gastric microsome assessed as liberation of inorganic phosphate using ATP at 10 uM relative to control
- Format: microsomes
- Reported Conditions: Stomach
Give just the number in %; leave the unit off.

get_value(item= COc1ccnc(C[S+]([O-])c2nc3cc(N4CCCCC4)c(NC(=O)C4CC4)cc3[nH]2)c1OC (configuration not stated) , readout=inhibition) returns 32

Memo: CCCN(CCC)c1cc2nc([S+]([O-])Cc3nccc(OC)c3OC)[nH]c2cc1NC(=O)C(F)(F)F (configuration not stated) , reported inhibition: 24

Measured inhibition of CCCN(CCC)c1cc2nc([S+]([O-])Cc3nccc(OC)c3OC)[nH]c2cc1NC(=O)c1ccco1 (configuration not stated) : 0

For reference, reported inhibition for CCCN(CCC)c1cc2nc([S+]([O-])Cc3ncc(C)c(OC)c3C)[nH]c2cc1NC(C)=O (configuration not stated) stands at 62

Entry COc1c(C)cnc(C[S+]([O-])c2nc3cc(Oc4ccccc4)c(NC(=O)C4CC4)cc3[nH]2)c1C (configuration not stated) ; inhibition = 18

Entry CCCN(CCC)c1cc2nc([S+]([O-])Cc3ncc(C)c(OC)c3C)[nH]c2cc1NC(=O)C1CC1 (configuration not stated) — recorded inhibition = 33

Measured inhibition of COc1c(C)cnc(C[S+]([O-])c2nc3cc(N4CCCCC4)c(NC(=O)COCc4ccccc4)cc3[nH]2)c1C (configuration not stated) : 58

GET /value?item= CCOC(=O)N1CCN(c2cc3nc([S+]([O-])Cc4nccc(OC)c4OC)[nH]c3cc2NC(C)=O)CC1 (configuration not stated) &field=inhibition returns 17

For COc1ccc2[nH]c([S+]([O-])Cc3ncc(C)c(OC)c3C)nc2c1 (configuration not stated) [OMEPRAZOLE] the molecule record lists inhibition as 39

Query COc1ccnc(C[S+]([O-])c2nc3cc(Oc4ccc5c(c4)OCO5)c(NC(=O)C4CC4)cc3[nH]2)c1OC (configuration not stated) yields inhibition of 0

So, COc1ccnc(C[S+]([O-])c2nc3cc(Oc4ccccc4)c(NC(=O)C4CC4)cc3[nH]2)c1OC (configuration not stated) ? Its inhibition was 2

Form field inhibition, entry COc1cc2nc([S+]([O-])Cc3ncc(C)c(OC)c3C)[nH]c2cc1NC(C)=O (configuration not stated) : 4

inhibition reading for COc1c(C)cnc(C[S+]([O-])c2nc3cc(N4CCCCC4)c(NC(C)=O)cc3[nH]2)c1C (configuration not stated) : 10

Lookup result for COc1c(C)cnc(C[S+]([O-])c2nc3cc(Oc4ccccc4)c(NC(C)=O)cc3[nH]2)c1C (configuration not stated) ; measured inhibition: 37

What the record says about COc1ccnc(C[S+]([O-])c2nc3cc(Oc4ccc5c(c4)OCO5)c(NC(C)=O)cc3[nH]2)c1OC (configuration not stated) : inhibition is 1

Recorded result, CCOC(=O)N1CCN(c2cc3nc([S+]([O-])Cc4nccc(OC)c4OC)[nH]c3cc2NC(=O)C2CC2)CC1 (configuration not stated) , inhibition: 4

The measured inhibition associated with COc1c(C)cnc(C[S+]([O-])c2nc3cc(Oc4ccc5c(c4)OCO5)c(NC(=O)C4CC4)cc3[nH]2)c1C (configuration not stated) reads 10
